Could you please report measured LD50 for the items listed next?
Assay: Oral toxicity (LD50) of solutions in partial glycerides versus suspension in aqueous tylose
Settings: guinea pig, in vivo, female guinea pigs, solution in Witafrol 7470 (mono- and diglycerides of oleic acid), read-out: LD50 in Witafrol 7470
Procedure: For testing the toxicity, solutions of g-strophanthin, proscillaridin A or medrogestone in various mixtures of mono-and diglycerides of long chain fatty acids and comparative formulations of the same pharmacologically active agents suspended in a tylose solution in water are administered orally to female guinea pigs of 250 to 300 g body weight by means of an oral feeding tube.
// units = mg/kg; emit number, no label

# get_value(readout='LD50', item= CC1OC(OC2CC(O)C3(CO)C4C(O)CC5(C)C(C6=CC(=O)OC6)CCC5(O)C4CCC3(O)C2)C(O)C(O)C1O (centres unmarked) [g-strophanthin] ) 8.28

# get_value(readout='LD50', item= C[C@@H]1O[C@@H](O[C@@H]2C=C3CC[C@@H]4[C@H](CC[C@]5(C)[C@@H](c6ccc(=O)oc6)CC[C@]45O)[C@@]3(C)CC2)[C@H](O)[C@H](O)[C@H]1O [proscillaridin A] ) 6.81

Origin of values: patent US4230702A
